Tested on: HepG2
Assay: cell viability relative to DMSO; higher = less toxic
Settings: 72 h; 10000 nM
readoutType: cell viability (%)
One number for each entry, in %.

Below, each entry is followed by its recorded cell viability result.
| compound | readoutType | endpointValue |
| --- | --- | --- |
| c1ccc(CNCc2ccc(CN3CCCNCCNCCCNCC3)cc2)nc1 | cell viability | 97.3 |
| NCC(CC(=O)O)c1ccc(Cl)cc1 (stereo not drawn) | cell viability | 99.8 |

stdin: Reported cell viability for C=CC(=O)Nc1cccc(C)c1Nc1ncc2cc(-c3c(Cl)c(OC)cc(OC)c3Cl)ccc2n1 : what is it?
stdout: 34.2

* * *

System: Caco-2
Assay: cell viability relative to DMSO; higher = less toxic
Conditions: 72 h; 100 nM
readoutType: cell viability (%)
Answers are plain numbers, in %.

Below, each entry is followed by its recorded cell viability result.
| compound | targetUnderTest | cell viability [%] |
| --- | --- | --- |
| Cc1c(Cn2c(C)nc3c(C(=O)O)cc(N4CCOCC4)cc32)cccc1C(F)(F)F | Caco-2 | 91.2 |
| CC(C)C[C@H](NC(=O)CNC(=O)c1cc(Cl)ccc1Cl)B(O)O [ixazomib] | Caco-2 | 24.4 |
| COc1cc(C(=O)N2CCC(N3CCN(C)CC3)CC2)ccc1Nc1ncc2c(n1)N(C)c1ccccc1C(=O)N2C [LRRK2-IN-1] | Caco-2 | 98.8 |
| C#C[C@]1(O)CC[C@H]2[C@@H]3CCC4=CC(=NO)CC[C@@H]4[C@H]3CC[C@@]21CC (mixture of isomers) [norelgestromin] | Caco-2 | 91.7 |
| CSc1ccc([C@H]2CN3CCC[C@H]3c3ccccc32)cc1 (racemic) [McN-5652-(+/-)] | Caco-2 | 96.1 |

Below is a list of compounds. For each, state its recorded cell viability.
1. CC1=NN(c2ccc(C)c(C)c2)C(=O)/C1=N\Nc1cccc(-c2cccc(C(=O)O)c2)c1O [eltrombopag]
2. CC(C)(C)[C@H]1CC[C@H](CC2=C(O)C(=O)c3ccccc3C2=O)CC1 [buparvaquone]
3. CC(=O)O[C@]1(C(C)=O)CC[C@H]2[C@@H]3C=CC4=CC(=O)CC[C@]4(C)[C@H]3CC[C@@]21C [6,7-dehydro-17-acetoxy-progesterone]

stdout:
[93.5, 102, 93.7]

* * *

Test system: HepG2
Test: cell viability relative to DMSO; higher = less toxic
Conditions: 72 h; 10000 nM
# note: exactly 90% is not below, so it is False; use True for cell viability strictly under it

| compound | classAssignment |
| --- | --- |
| COc1cc2ncnc(Sc3nnc(C)s3)c2cc1OC [SKLB1002] | True |

stdin: State whether 90% exceeds cell viability recorded for O=C1/C(=C/c2ccccc2)C[C@@]2(O)[C@H]3Cc4ccc(O)c5c4[C@@]2(CCN3CC2CC2)[C@H]1O5 [BNTX] .
stdout: True

stdin: State whether 90% exceeds cell viability recorded for COC[C@H](C)Oc1cc(O[C@@H](C)Cc2ccccc2)cc(C(=O)Nc2ccc(C(=O)O)cn2)c1 [GKA-50] .
stdout: False

stdin: State whether 90% exceeds cell viability recorded for CN1C(=O)/C(=C2/C(=O)Nc3ccccc32)c2ccccc21 [meisoindigo] .
stdout: True

stdin: State whether 90% exceeds cell viability recorded for C[C@@H](c1nc(-c2ccc(C#N)cc2)cs1)[C@](O)(Cn1cncn1)c1cc(F)ccc1F [isavuconazole] .
stdout: True

stdin: State whether 90% exceeds cell viability recorded for CCn1c(O)nnc1-c1ccc(Cl)cc1 [5-(4chlorophenyl)-4-ethyl-2,4-dihydro-3H-1,2,4-triazol-3-one] .
stdout: False

stdin: State whether 90% exceeds cell viability recorded for COc1ccc(OC[C@@H]2c3cc(OC)c(OC)cc3CCN2C(=O)c2cccc(Cl)c2)cc1 [CIQ] .
stdout: False

stdin: State whether 90% exceeds cell viability recorded for CC(C)(C)[C@H]1CC[C@H](CC2=C(O)C(=O)c3ccccc3C2=O)CC1 [buparvaquone] .
stdout: True

stdin: State whether 90% exceeds cell viability recorded for C1N2CN3CN1CN(C2)C3 [methenamine] .
stdout: False

stdin: State whether 90% exceeds cell viability recorded for CCC(=O)OCN1C(=O)C=CC1=O [MIRA-1] .
stdout: False

stdin: State whether 90% exceeds cell viability recorded for Nc1nc2c(ncn2[C@@H]2O[C@H](CO)[C@@H](O)[C@H]2O)c(=O)[nH]1 [guanosine] .
stdout: False

stdin: State whether 90% exceeds cell viability recorded for Nc1c(CC(=O)O)cccc1C(=O)c1ccccc1 [amfenac] .
stdout: False

* * *

System: Calu-3
Assay: cell viability relative to DMSO; higher = less toxic
Conditions: 72 h; 10 nM
readoutType: cell viability (%)
Answers are plain numbers, in %.

Below, each entry is followed by its recorded cell viability result.
| compound | unitAbbreviation | endpointValue |
| --- | --- | --- |
| COc1ccccc1CC(=N)N1C[C@@H]2C(=O)CCC(c3ccccc3)(c3ccccc3)[C@@H]2C1 | % | 88.4 |
| O=c1ccc2ccc(O)c(O)c2o1 [daphnetin] | % | 111 |
| CC(=O)NC1N=C(c2ccccc2)c2ccccc2NC1=O (centres undefined) | % | 101 |
| O=C(O)c1ccc2nc(-c3cc(Cl)cc(Cl)c3)oc2c1 [tafamidis-meglumine] | % | 95.8 |
| C=CC(=O)N1CCC[C@@H](n2nc(-c3ccc(Oc4ccccc4)cc3)c3c(N)ncnc32)C1 [ibrutinib] | % | 92 |
| O=C1/C(=C/c2ccccc2)C[C@@]2(O)[C@H]3Cc4ccc(O)c5c4[C@@]2(CCN3CC2CC2)[C@H]1O5 [BNTX] | % | 95.6 |

Below is a list of compounds. For each, state its recorded cell viability.
1. CCCCCCCCCCC(O)C1C=CC2C(=O)N(c3ccccc3)C(=O)C2N1Nc1ccc([N+](=O)[O-])cc1 (centres undefined) [A12B4C3]
2. CCOC(=O)[C@@](C)(N)Cc1ccc(O)c(O)c1 [methyldopate]
3. CN(C)/C=N/c1c(I)cc(I)c(CCC(=O)O)c1I [iopodic-acid]

stdout:
104
97.1
95.4

* * *

System: A549-ACE2 infected with SARS-CoV-2
Test: morphology score (similarity to uninfected cells); higher = more like uninfected cells
Conditions: 3 µM; 24 h
Provide the reported morphology score of each item.
Give bare numbers.

Below, each entry is followed by its recorded morphology score result.
| compoundSmiles | morphology score |
| --- | --- |
| O=C1/C(=C/c2ccccc2)C[C@@]2(O)[C@H]3Cc4ccc(O)c5c4[C@@]2(CCN3CC2CC2)[C@H]1O5 | 0.68 |
| CCN(CC)C(=S)SSC(=S)N(CC)CC | 0.45 |
| O=C(NCc1ccccc1)c1csc(Nc2ccncn2)n1 | -0.1 |

Now let's try a different one.
stdin: Reported morphology score for COc1cc2ncnc(Sc3nnc(C)s3)c2cc1OC : what is it?
stdout: -0.15

* * *

Provide the reported cell viability of each item.
System: HepG2
Assay: cell viability relative to DMSO; higher = less toxic
Conditions: 72 h; 10000 nM
Give bare numbers, in %.

Below is a list of molecules. For each, state its recorded cell viability.
1. NC(=O)C1CCCc2c1[nH]c1ccc(Cl)cc21 (stereo not given)
2. O=c1ccc2ccc(O)c(O)c2o1
3. COc1cc2ncn(-c3cc(OCc4ccccc4C(F)(F)F)c(C(N)=O)s3)c2cc1OC
4. O=C1NCCc2[nH]c(-c3ccncc3)cc21
5. Cc1cc(-c2cc(OC(=O)c3ccccc3)ccc2Cl)cc2nnc(Nc3ccc(OCCN4CCCC4)cc3)nc12

stdout:
[106, 82.1, 26.5, 9.5, 107]

* * *

Test system: Caco-2
Experiment: cell viability relative to DMSO; higher = less toxic
Conditions: 72 h; 1000 nM
# note: exactly 90% is not below, so it is N; use Y for cell viability strictly under it

Example entries and their recorded answers appear below.
| compound | classAssignment |
| --- | --- |
| C#C[C@]1(O)CC[C@H]2[C@@H]3CCC4=CC(=NO)CC[C@@H]4[C@H]3CC[C@@]21CC (mixture of isomers) | N |
| CCCN(C/C=C/I)C1CCc2cccc(O)c2C1 (stereo unspecified) [8-hydroxy-PIPAT] | N |
| C/C=C/c1cc(OC)c(OC)cc1OC | N |

stdin: State whether 90% exceeds cell viability recorded for CCc1c2c(nc3ccc(O)cc13)-c1cc3c(c(=O)n1C2)COC(=O)[C@]3(O)CC .
stdout: Y

stdin: State whether 90% exceeds cell viability recorded for C=C(C)[C@@H]1CC[C@]2(C(=O)O)CC[C@]3(C)[C@H](CC[C@@H]4[C@@]5(C)CC[C@H](OC(=O)CC(C)(C)C(=O)O)C(C)(C)[C@@H]5CC[C@]43C)[C@@H]12 .
stdout: N

stdin: State whether 90% exceeds cell viability recorded for C=CCc1cccc(/C=N/NC(=O)CN2CCN(Cc3ccccc3)CC2)c1O .
stdout: Y

stdin: State whether 90% exceeds cell viability recorded for O=[N+]([O-])c1ncc[nH]1 .
stdout: Y

stdin: State whether 90% exceeds cell viability recorded for NCCCCCC(=O)O .
stdout: N

stdin: State whether 90% exceeds cell viability recorded for c1ccc(CNCc2ccc(CN3CCCNCCNCCCNCC3)cc2)nc1 .
stdout: N

stdin: State whether 90% exceeds cell viability recorded for Cn1nccc1Nc1nccc(-c2ccn([C@H](CO)c3ccc(Cl)c(F)c3)c(=O)c2)n1 .
stdout: Y

stdin: State whether 90% exceeds cell viability recorded for CCn1cc(C(=O)O)c(=O)c2cc(F)c(N3CCNCC3)cc21 .
stdout: N
